Each entry below carries its recorded Kd.
target_of_assay: T1, cynomolgus monkey B7-H7 (soluble analyte in SPR) (cynomolgus monkey)
T1 sequence: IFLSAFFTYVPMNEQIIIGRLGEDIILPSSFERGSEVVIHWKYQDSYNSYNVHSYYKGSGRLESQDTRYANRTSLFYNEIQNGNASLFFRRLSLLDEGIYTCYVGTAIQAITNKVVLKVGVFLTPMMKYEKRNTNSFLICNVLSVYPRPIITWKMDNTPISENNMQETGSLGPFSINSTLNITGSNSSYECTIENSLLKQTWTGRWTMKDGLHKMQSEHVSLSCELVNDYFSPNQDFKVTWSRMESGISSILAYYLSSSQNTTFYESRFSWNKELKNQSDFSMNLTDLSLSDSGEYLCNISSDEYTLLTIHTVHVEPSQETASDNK
measurement_description: SPR (Biacore), antibody captured by anti-Fc on CM5 chip, B7-H7 injected, 37 C
reported_metric: Kd (nM)

INSERT INTO results (binder, units_label, reported) VALUES
  ('anti-B7-H7 antibody 5B10 (antibody, V domains shown) VH: EVQLQQSGPELEKPGASVKISCKASGYSFTGYNMNWVKQSNGKSLEWIGNIDPYSGGSTYNQKFKGKATLTVDKSSSTASLQLKSLTSEDSSVYYCARSFYDAPYLTYWGQGTLVTVSA VL: DIQMTQSPTSLSASVGETVTITCRASENIFIYLAWYQQKQGKSPQLLVFNAKTLAEGVPSRFSGSGSGTQFSLKINSLRPEDFGTYYCQHHYGTPPTFGGGTKLEV', 'nM', 4.6),
  ('anti-B7-H7 antibody 2F10 (antibody, V domains shown) VH: EIQLQQTGPELVKPGASLRISCKASGYSFTDYIIVWVKQNQGKNLDWIEKINPYYGTTTYNLRFEDKATLTVNKSSTTAYMQLNSLTSEDSAVYYCARWDYVSTLFAMDYWGQGTSITVSS VL: DIVMTQSHKVMSTSVGDRVSIICKASQDVGTAVAWYQQKPGQSPKLLIYWASTRHTGVPDRFTGSGSGTDFILTITNVQSENLANYFCQQYKRYYTFGGGTKLEIK', 'nM', 8.6),
  ('anti-B7-H7 antibody 5C9 (antibody, V domains shown) VH: QVQLQQSGAELAKPGASVKMSCKASGYTFTSFWIHWIKQRPGQGLEWIGYIIPNTDYTEYNQKFKDKATFTADKSSSTAYMQLSSLTSEDSAVFYCARGLRGAYYFDYWGQGTTLTVSS VL: DIVLTQSPASLAVSLGLRATISCRSSQSVSTSTNGYMHWYQQKPGQPPKLLIMYASNLESGVPARFSGSGSGTDFTLNIHPVDEEDTATYYCQHSWVLPYTFGGGTKLEIK', 'nM', 4.8);
